EXPERIMENT DESCRIPTION: Quantitative High-Throughput drug screen in 47 multiple myeloma cell lines against the NCATS MIPE library collection: U266_ATCC cell viability assay (AID 1919864); note: nearly all actives have a fitted effect of over 35% in size
EXPERIMENTAL PARAMETERS: U266 myeloma viability, CellTiter-Glo ATP luminescence, 48 h; series mostly up to 45.8 µM
Inconclusive results are not listed. Calls of active or inactive are those of the source. Calls come from the whole dose curve; as a rule, active = well fitted cell-killing curve with a large enough effect; inconclusive = small, poorly fitted or top-dose-only effect, or effect the other way; inactive = no such curve, though single readings can be large or run the other way.
Labels: active, inactive

MOLECULE	GROUP LABEL
COc1ccc2c(c1)c(C1=C(c3c[nH]c4ccccc34)C(=O)NC1=O)cn2CCCN(C)C	active
CN1N=C(N)c2cn([C@@H]3O[C@H](COP(=O)(O)O)[C@@H](O)[C@@H]3O)c3ncnc1c23	active
CC(C)CNc1ccnc(NCc2csc(-c3ccccc3)n2)n1	active
c1ccc(CNc2nc(N3CCOc4ccccc43)nc3c2CCCC3)cc1	inactive
CC(=O)O[C@]1(C(C)=O)CC[C@H]2[C@@H]3C=C(Cl)C4=CC(=O)[C@@H]5C[C@H]5[C@]4(C)[C@@H]3CC[C@@]21C	active
N#Cc1c(N(CC(=O)O)CC(=O)O)sc(C(=O)O)c1CC(=O)O	inactive
COc1ccc2ccc(=O)oc2c1CC=C(C)C	active
c1ccc(-c2oc3ncnc(NC[C@@H]4CCCO4)c3c2-c2ccccc2)cc1	active
O=C(c1ccc(F)c(F)c1Nc1ccc(I)cc1F)N1CC(O)([C@H]2CCCCN2)C1	active
Cn1c(=O)c(-c2c(Cl)cccc2Cl)cc2cnc(Nc3cccc(C(=O)O)c3)nc21	inactive
CN(C)CCCNC(=O)c1ccc(-c2cc(O)c3ncccc3c2)cc1	active
COc1c(C)c2c(c(O)c1CC=C(C)CCC(=O)O)C(=O)OC2	active
CC[C@H](C)C(=O)O[C@H]1C[C@H](O)C=C2C=C[C@H](C)[C@H](CC[C@@H](O)C[C@@H](O)CC(=O)O)[C@H]21	inactive
CNC1[C@H](O)C(O[C@@H]2C(O)C(O[C@H]3O[C@H]([C@@H](C)NC)CC[C@H]3N)[C@@H](N)C[C@H]2N)OC[C@]1(C)O (some centres undefined)	inactive
CCOC(=O)[C@H](CCc1ccccc1)N[C@@H](C)C(=O)N1CCCC1C(=O)O (some centres undefined)	active
Cc1cc(NC(=O)Nc2ccc(N(C)C)cc2)c2cc(F)cc(F)c2n1	inactive
O=C1NC(=O)C(c2cnc3ccccn23)=C1c1cn2c3c(cccc13)CN(C(=O)N1CCOCC1)CC2	inactive
COc1ccc(-c2ccc3ncc4c(c3c2)n(-c2ccc(N3CCNCC3)c(C(F)(F)F)c2)c(=O)n4C)cn1	active
O=S(=O)(O)c1ccc2cc(N=Nc3cc(S(=O)(=O)O)c4cccnc4c3O)ccc2c1	active

====

EXPERIMENT DESCRIPTION: qHTS profiling of the MIPE4 collection as inhibitors of Plasmodium falciparum (DD2) proliferation (AID 743345)
EXPERIMENTAL PARAMETERS: P. falciparum Dd2 in erythrocytes, SYBR Green DNA, 72 h; at 28.5 µM (top of the series) unless noted
Decide using parasite growth remaining, % of DMSO control (lower = more inhibition) alone. Strictly below 10%: y. Equal to or above 10%: n.

COMPOUND STRUCTURE	GROUP LABEL
OC[C@H]1O[C@@H](Oc2ccc(O)cc2)[C@H](O)[C@@H](O)[C@H]1O	n
CCC(=O)N1CCN(c2ccc(-n3c(=O)ccc4cnc5ccc(-c6cnc7ccccc7c6)cc5c43)cc2C(F)(F)F)CC1	y
CSc1cccc(Nc2ncc3cc(-c4c(Cl)cccc4Cl)c(=O)n(C)c3n2)c1	n
O=C(Nc1cccc2c(=O)cc(-c3nn[nH]n3)oc12)c1ccc(OCCCCc2ccccc2)cc1	n
COc1c(C)cnc(Cn2cnc3c(Cl)nc(N)nc32)c1C	n
NCc1c[nH]c(=S)n1[C@H]1CCc2c(F)cc(F)cc2C1	n
COc1cc(Cl)cn2c(-c3cccc(NC4CNC4)n3)cnc12	n
CCN1CCN(c2ccc(Nc3cc(N(C)C(=O)Nc4c(Cl)c(OC)cc(OC)c4Cl)ncn3)cc2)CC1	y
O=C(Nc1ccccc1)Nc1ccc(-c2ccc(C(=O)[C@H]3CCC[C@H]3C(=O)O)cc2)cc1	n
